- Assay procedure: pKa value of the drug substance
- Type: physicochemical
- Conditions: free acid
Readout kind: pKa
Returns: the value as a bare number; no unit string appended.

Problem: # input compound: O=C(NCC(F)F)c1ccc(-n2[nH]c3c(nnc4c(F)cccc43)c2=O)cc1 [RhuDex® free acid] ; wanted: its pKa
Result: 5.8

* * *

- Assay procedure: Saturation solubility, shake-flask method, quantification by HPLC/UV
- Type: physicochemical
- Conditions: water, 37 °C, pH 9.9, water, thermodynamic from solid, in water, final pH value of the solution 9.9; read-out: solubility
Where a name gives a salt, the structure may show the parent alone.
Readout kind: solubility at 24 h

Problem: Quick one: solubility at 24 h of O=C(NCC(F)F)c1ccc(-n2[nH]c3c(nnc4c(F)cccc43)c2=O)cc1 [RhuDex® choline salt] ?
Result: ~10000 µg/mL
